Hello, the source for this data is the RNAGym collection of RNA variant scans (doi:10.1073/pnas.2313332121), in case you need it.

B1: TPR t1 (parent)
chain: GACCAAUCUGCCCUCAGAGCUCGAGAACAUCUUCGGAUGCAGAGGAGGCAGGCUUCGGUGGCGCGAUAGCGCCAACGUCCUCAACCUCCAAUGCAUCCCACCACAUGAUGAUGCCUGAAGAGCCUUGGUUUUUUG

Variants of: B1
Assay: polymerase ribozyme fitness, log enrichment relative to wild type (log ratio); higher = more active; in vitro selection for triplet polymerase activity
Kindly state polymerase ribozyme fitness (log ratio) for each of the entries shown.
Give bare numbers.

Examples with their reported polymerase ribozyme fitness (log ratio) follow.
variant-description: G44A C49A C73U U116C
polymerase ribozyme fitness (log ratio): -2.91

variant-description: C4A C73G
polymerase ribozyme fitness (log ratio): -2.98

variant-description: C64U G107A
polymerase ribozyme fitness (log ratio): -3.01

variant-description: G42C G127A
polymerase ribozyme fitness (log ratio): -2.97

variant-description: C4U C53U C82A U129C
polymerase ribozyme fitness (log ratio): -2.91

Record polymerase ribozyme fitness (log ratio) for all entries; do not skip any.
1. U55G G69A C73A
2. A6U C22U

1: -3.04; 2: -3.04
